test: self-splicing fitness, log relative to wild type (ln ratio); higher = more splicing; Tetrahymena group I intron in knt gene, E. coli kanamycin selection, DiMSum; sequences stand for … in CUCUCU…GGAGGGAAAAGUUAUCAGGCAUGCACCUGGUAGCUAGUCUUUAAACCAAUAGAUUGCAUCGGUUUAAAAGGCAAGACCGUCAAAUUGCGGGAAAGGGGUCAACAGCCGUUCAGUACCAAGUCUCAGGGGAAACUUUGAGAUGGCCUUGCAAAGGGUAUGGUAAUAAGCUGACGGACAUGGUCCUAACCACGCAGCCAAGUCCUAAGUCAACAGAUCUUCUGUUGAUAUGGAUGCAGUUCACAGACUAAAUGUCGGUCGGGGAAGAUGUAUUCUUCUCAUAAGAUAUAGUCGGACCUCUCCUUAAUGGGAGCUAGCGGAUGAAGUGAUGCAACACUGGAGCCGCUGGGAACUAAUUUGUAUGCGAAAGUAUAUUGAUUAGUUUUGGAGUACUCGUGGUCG; settings: 30 °C;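 note: selection with 25 µg/mL kanamycin versus none on LB agar overnight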
Measured property: self-splicing fitness (ln)
Answer as a number with no unit attached.

Query block: What measured self-splicing fitness (ln) goes with `CGCCAGCAAUAUUACGGGUC` ?
Result block: -2.81

Query block: Param item: `UCAAAGCAAUAUUACGUGUA`
Result block: -1.78

Query block: Also `UGUCAGCAAUAUUACGAAUG` , if possible.
Result block: 0.0484

Query block: For `UACGAGCAAUAUUACGAAUU` then?
Result block: -4.2

Query block: Next entry: `CCACAGCAAUAUUACGGUGC`
Result block: -4.03

Query block: How about `UCGUAGCAAUAUUACGUCGU` ?
Result block: -4.26

Query block: # iterate: `AUGCAGCAAUAUUACGGGUC`
Result block: -3.56

Query block: Also `UGCAAGCAAUAUUACGGCCA` ?
Result block: -0.252

Query block: Entry `ACGUAGCAAUAUUACGAUGU` please
Result block: -2.37

Query block: Now the sequence `UAAAAGCAAUAUUACGAAAU`
Result block: -3.04

Query block: Input `CCAUAGCAAUAUUACGCAGA`
Result block: -2.96

Query block: Do the same for `GAGGAGCAAUAUUACGCGCA` please
Result block: -2.42

Query block: Please do the same for `UCAUAGCAAUAUUACGUAAG` as well.
Result block: -1.66

Query block: Query `AUUAAGCAAUAUUACGACAC` next
Result block: -0.804

Query block: Okay, and `AAGAAGCAAUAUUACGCCUC` ?
Result block: -1.82

Query block: What about this sequence? `AAGUAGCAAUAUUACGCCGA`
Result block: -1.53

Query block: What about this sequence? `GGAGAGCAAUAUUACGAAUA`
Result block: -2.51

Query block: Item: `AGUUAGCAAUAUUACGGGCG`
Result block: -0.303

Query block: Proceed to `GAUUAGCAAUAUUACGCAUU`
Result block: -2.53

Query block: Also need `GGGCAGCAAUAUUACGCCAA` , thanks.
Result block: -0.582

Query block: // same read-out, input: `UUUUAGCAAUAUUACGGCCU`
Result block: -1.53

Query block: What do you get for `AGGCAGCAAUAUUACGGGGC` ?
Result block: -3.89

Query block: And `UGAAAGCAAUAUUACGUACG` ?
Result block: -0.177

Query block: How about this sequence: `GCCUAGCAAUAUUACGGGGG`
Result block: -2.92

Query block: What about `AACAAGCAAUAUUACGAGUC` ?
Result block: -3.19

Query block: Query `CGACAGCAAUAUUACGUCGG` next
Result block: -1.83

Query block: Likewise for `CGGGAGCAAUAUUACGCGCU` ?
Result block: -3.25

Query block: For `GGCAAGCAAUAUUACGUAGC` then?
Result block: -2.4

Query block: Subsequent entry: `GCAGAGCAAUAUUACGACAA`
Result block: -1.8

Query block: `UCGUAGCAAUAUUACGAAUU` , same question.
Result block: -3.74

Query block: Queued: `UAUUAGCAAUAUUACGGCAU`
Result block: -1.99

Query block: Another sequence to look at: `GGAUAGCAAUAUUACGCUAG`
Result block: -2.26

Query block: Quick one: `CCAAAGCAAUAUUACGACUC`
Result block: -2.53

Query block: Same question for `AAUGAGCAAUAUUACGUAAC` please.
Result block: -3.92

Query block: Proceed to `UUAAAGCAAUAUUACGACCC`
Result block: -0.686

Query block: Further, for `UUCGAGCAAUAUUACGGUCA` ?
Result block: -1.71

Query block: Subsequent entry: `UAGAAGCAAUAUUACGGUGU`
Result block: -3.23

Query block: For `GGCGAGCAAUAUUACGUGAA` then?
Result block: -2.49

Query block: Entry to check: `UUGAAGCAAUAUUACGAAGA`
Result block: -0.989

Query block: Another sequence to check: `UCGAAGCAAUAUUACGGGCA`
Result block: -0.603

Query block: And then `CCUAAGCAAUAUUACGAUAA` , what is it?
Result block: -2.87

Query block: Now consider `UCUAAGCAAUAUUACGGCAC` .
Result block: -3.19

Query block: Also, `UCUUAGCAAUAUUACGGUCU` please.
Result block: -4.42

Query block: Another sequence to look at: `AGGUAGCAAUAUUACGCAGC`
Result block: -3.81

Query block: Follow-up item: `ACACAGCAAUAUUACGGUCG`
Result block: -1.09

====

assay: self-splicing fitness, log relative to wild type (ln ratio); higher = more splicing; Tetrahymena group I intron in knt gene, E. coli kanamycin selection, DiMSum; sequences stand for … in CUCUCU…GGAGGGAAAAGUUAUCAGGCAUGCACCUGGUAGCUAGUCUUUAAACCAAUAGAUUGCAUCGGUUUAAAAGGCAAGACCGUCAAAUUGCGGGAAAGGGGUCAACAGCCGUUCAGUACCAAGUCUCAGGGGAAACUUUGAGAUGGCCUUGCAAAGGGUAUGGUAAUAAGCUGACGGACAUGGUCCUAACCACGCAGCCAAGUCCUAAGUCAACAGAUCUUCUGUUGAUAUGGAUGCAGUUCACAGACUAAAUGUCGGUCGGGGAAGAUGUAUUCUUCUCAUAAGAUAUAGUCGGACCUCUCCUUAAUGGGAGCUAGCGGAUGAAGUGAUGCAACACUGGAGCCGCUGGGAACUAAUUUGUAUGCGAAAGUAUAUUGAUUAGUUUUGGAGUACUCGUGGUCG; details: 30 °C
Kindly supply the reported self-splicing fitness (ln) values for the records listed here.
Write the number on its own, no unit after it.

Query block: Looking for the measured self-splicing fitness (ln) of `GCACAGCAAUAUUACGUGGA` , can you help?
Result block: -0.386

Query block: Subsequent entry: `UAGGAGCAAUAUUACGGCUU`
Result block: -4.37

Query block: Follow-up entry: `ACUCAGCAAUAUUACGUUGC`
Result block: -3.43

Query block: Can you handle `GCUCAGCAAUAUUACGGUGA` next?
Result block: -3.42

Query block: What about `UAGAAGCAAUAUUACGUUGG` ?
Result block: -2.54

Query block: What about this sequence? `CACUAGCAAUAUUACGGAAG`
Result block: -0.706

Query block: What do you get for `GGCUAGCAAUAUUACGACCC` ?
Result block: -1.79

Query block: Follow-up entry: `GGCAAGCAAUAUUACGAACC`
Result block: -2.41

Query block: Do the same for `AGGUAGCAAUAUUACGUGAC` please
Result block: -2.73

Query block: Continue with `UAAGAGCAAUAUUACGCUUA`
Result block: -3.19

Query block: Similarly, `CGAUAGCAAUAUUACGCACA` ?
Result block: -0.708

Query block: And `UCAUAGCAAUAUUACGGGAC` ?
Result block: -2.96

Query block: Let us now turn to `UCGAAGCAAUAUUACGGAGA`
Result block: -2.69

Query block: Next sequence: `UCUGAGCAAUAUUACGGGGC`
Result block: -3.3

Query block: Next sequence: `AGAGAGCAAUAUUACGUGGA`
Result block: -3.15

Query block: Also, `GGACAGCAAUAUUACGUAUC` please.
Result block: -0.918

Query block: And then `GACGAGCAAUAUUACGUAAG` , what is it?
Result block: -3.67

Query block: Entry `UACAAGCAAUAUUACGUCGA` please
Result block: -1.78

Query block: Next record, please: `GCCCAGCAAUAUUACGCGAA`
Result block: -2.09

Query block: Please give the result for `GCCCAGCAAUAUUACGCCCA` too.
Result block: -0.496

Query block: Entry to check: `GACAAGCAAUAUUACGUUGA`
Result block: -2.14

Query block: Note, next up: `CGGUAGCAAUAUUACGCAGC`
Result block: -2.14

Query block: Then what about the sequence `GAUUAGCAAUAUUACGCGAU` ?
Result block: -3.61

Query block: # repeat for `CGCCAGCAAUAUUACGUAGU`
Result block: -2.67

Query block: Consider next the sequence `CCCCAGCAAUAUUACGCCUG` in the same way.
Result block: -3.37

Query block: Query `GGAUAGCAAUAUUACGCGAU` next
Result block: -3.65

Query block: Queued: `GUGCAGCAAUAUUACGGAUG`
Result block: -2.72

Query block: Same for `AGCUAGCAAUAUUACGGUAC`
Result block: -2.2

Query block: Please give the result for `AGGCAGCAAUAUUACGCCAG` too.
Result block: -0.444

Query block: Same thing, different sequence: `CCACAGCAAUAUUACGCAUG`
Result block: -1.64

Query block: Similarly, `CGGAAGCAAUAUUACGCCGU` ?
Result block: -2.88

Query block: // repeat for `CCUAAGCAAUAUUACGCUAG` and report
Result block: -3.75

Query block: Could you do the same for `AACUAGCAAUAUUACGAGUA` , please?
Result block: -0.62

Query block: Now consider `AGGUAGCAAUAUUACGCUAU` and answer again.
Result block: -3.87

Query block: Try this sequence next: `UGGUAGCAAUAUUACGUGAC`
Result block: -3.97

Query block: One more sequence: `CAUUAGCAAUAUUACGGGGG`
Result block: -2.52

Query block: Moving on to `GAUUAGCAAUAUUACGUGGU`
Result block: -2.61

Query block: Moving on to the next sequence: `CAGCAGCAAUAUUACGCAUA`
Result block: -1.81

Query block: What do you get for `AAGCAGCAAUAUUACGCGGA` ?
Result block: -2.59

Query block: Entry `GACAAGCAAUAUUACGUGAC` please
Result block: -1.47

Query block: What do you have for `ACAUAGCAAUAUUACGCGUU` ?
Result block: -3.55

Query block: What do we get for `UGAAAGCAAUAUUACGGGGU` ?
Result block: -3.55

Query block: Further, for `UGCGAGCAAUAUUACGCUUC` ?
Result block: -3.96

Query block: And what about the sequence `GGCUAGCAAUAUUACGCAUA` ?
Result block: 0.253

Query block: Also, `AGCCAGCAAUAUUACGACAA` please.
Result block: -3.47

Query block: Same question for `GGCAAGCAAUAUUACGGUAG` please.
Result block: -2.27

Query block: Param item: `ACGGAGCAAUAUUACGCCAU`
Result block: -2.63

Query block: `UCACAGCAAUAUUACGGACU` ?
Result block: -2.99

Query block: And what about the sequence `CGCCAGCAAUAUUACGCCGG` ?
Result block: -3.13

Query block: And what about the sequence `GUUUAGCAAUAUUACGCAUU` ?
Result block: -1.53

Query block: Cool, now `AUGCAGCAAUAUUACGAUAA`
Result block: -1.55

Query block: Item: `ACAAAGCAAUAUUACGCCCC`
Result block: -0.67

Query block: Repeat for the following sequence: `GGCUAGCAAUAUUACGGCAU`
Result block: -0.0766

Query block: Try `AUUCAGCAAUAUUACGCAUC` next.
Result block: -2.75

Query block: Here is the next sequence: `GUAGAGCAAUAUUACGUGCA`
Result block: -0.339

Query block: Now consider `CACAAGCAAUAUUACGUAAC` and answer again.
Result block: -2.43

Query block: How about this sequence: `CUCGAGCAAUAUUACGUCGA`
Result block: -3.29

Query block: Thanks! And `AACAAGCAAUAUUACGGGUU` ?
Result block: -2.34

Query block: What would you report for `AACCAGCAAUAUUACGGGUC` ?
Result block: -3.62

Query block: And `ACAGAGCAAUAUUACGGGAG` ?
Result block: -3.51

Query block: Also, `CUACAGCAAUAUUACGCCUA` please.
Result block: -2.46

From: the supplement of paper PMC7877785
